molecular target: Glucocorticoid Receptor (Homo sapiens, UniProt P04150); construct: expressed in transfected cells; assay: Agonistic mode of action on the glucocorticoid receptor (CHO-Gal4/GR luciferase reporter cell line); type: cell-based; conditions: CHO-Gal4/GR luciferase reporter cells; observed in the agonistic assay or the antagonistic assay (mode not given); read-out: IC50 or EC50 range
Sequence (P04150 524-758 limits assumed): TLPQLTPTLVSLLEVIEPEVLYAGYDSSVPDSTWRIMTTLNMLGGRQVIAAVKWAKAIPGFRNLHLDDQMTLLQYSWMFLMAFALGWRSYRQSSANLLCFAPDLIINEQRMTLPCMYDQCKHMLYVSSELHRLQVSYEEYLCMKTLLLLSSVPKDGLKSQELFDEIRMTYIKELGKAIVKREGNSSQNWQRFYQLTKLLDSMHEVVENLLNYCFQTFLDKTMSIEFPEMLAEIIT
Listed below: IC50 or EC50 (antagonist or agonist mode, not stated per compound) values for each entry.
endpoint.label: IC50 or EC50 (antagonist or agonist mode, not stated per compound)

• COc1c(-c2cc(F)cc3c2ccn3CCO)cc(F)c2c1-n1c(C)nnc1C(C)(C)N2 = 100 to 1000 nM
• Cc1c(-c2cc(F)cc3c2cnn3S(C)(=O)=O)c(F)c(F)c2c1-n1c(C)nnc1C(C)(C)N2 = < 100 nM
• Cc1c(-c2cccc3c2ccn3S(C)(=O)=O)cc(Cl)c2c1-n1c(C)nnc1C(C)(C)N2 = < 100 nM
• COc1c(-c2ccc(F)c3[nH]ccc23)cc(F)c2c1-n1c(C)nnc1C(C)(C)N2 = 100 to 1000 nM

----------
Molecular target: Glucocorticoid Receptor (Homo sapiens, UniProt P04150)
Construct: expressed in transfected cells
Assay: Agonistic mode of action on the glucocorticoid receptor (CHO-Gal4/GR luciferase reporter cell line)
Assay type: cell-based
Details: CHO-Gal4/GR luciferase reporter cells; observed in the agonistic assay or the antagonistic assay (mode not given); read-out: IC50 or EC50 range
Excerpt: Potential selective glucocorticoid receptor modulators of this intervention can be tested for modulation of the activity of the glucocorticoid receptor using cell-based assays. These assays involve a Chinese hamster ovary (CHO) cell line which contains fragments of the glucocorticoid receptor as well as fusion proteins. […] After cell lysis the luminescence that is produced by luciferase after addition of the substrate is detected and EC50 or IC50 values can be calculated. […]
endpoint.label: IC50 or EC50 (antagonist or agonist mode, not stated per compound)

- COc1c(-c2cc(F)cc3c(C4CC4)c[nH]c23)cc(F)c2c1-n1c(C)nnc1C(C)(C)N2 [Example 478]: < 100 nM
- Cc1nnc2n1-c1c(c(F)cc(-c3cc(F)cc4c3ccn4S(C)(=O)=O)c1C(F)F)NC2(C)C [Example 455]: < 100 nM
- Cc1c(-c2cccc3c2ccn3S(=O)(=O)CF)cc(F)c2c1-n1c(C)nnc1C(C)(C)N2 [Example 349]: 100 to 1000 nM
- COc1c(-c2cc(F)cc3c2ccn3S(C)(=O)=O)cc(F)c2c1-n1c(C)nnc1C(C)(C)N2 [Example 56]: 100 to 1000 nM
- Cc1c(-c2cccc3c2ccn3S(C)(=O)=O)c(F)c(Cl)c2c1-n1c(C)nnc1C(C)(C)N2 [Example 502]: < 100 nM
